Test system: U2OS
Experiment: cell viability relative to DMSO; higher = less toxic
Conditions: 72 h; 10 nM
quantity kind: cell viability (%)
Your answer is read as %, so omit the unit and give the number.

Worked examples follow.
compound	cell viability [%]
CCN(CCCc1ccccc1)CCCc1ccccc1	100
CCC(=O)O[C@H]1[C@H](O[C@@H]2[C@@H](C)[C@H](O[C@H]3C[C@@](C)(OC)[C@@H](O)[C@H](C)O3)[C@@H](C)C(=O)O[C@H](CC)[C@@](C)(O)[C@H](O)[C@@H](C)C(=O)[C@H](C)C[C@@]2(C)O)O[C@H](C)C[C@@H]1N(C)C [erythromycin-estolate]	98.4

Can you look up the measured cell viability of C[N+](C)(C)CCOC(=O)CCC(=O)OCC[N+](C)(C)C [succinylcholine-chloride] for me?
103

###

Reported cell viability values for the following molecules.
Tested on: U2OS
Test: cell viability relative to DMSO; higher = less toxic
Settings: 72 h; 10 nM
Your answer is read as %, so omit the unit and give the number.

Worked examples follow.
molecule	quantity kind	observed measurement
NC(=O)[C@@H](CCC(F)(F)F)N(Cc1ccc(-c2ncon2)cc1F)S(=O)(=O)c1ccc(Cl)cc1	cell viability	94.9
O=NN(CCCl)C(=O)NC1CCCCC1	cell viability	97.1
Cc1cc(NC(=O)NCCN2CCC(O)(Cc3ccccc3)CC2)c2ccccc2n1	cell viability	94.9
O=C(Nc1ccccc1)N[C@H]1C[C@H](C(=O)O)Nc2cc(Cl)cc(Cl)c21	cell viability	104

Can you look up the measured cell viability of CN(C)CCN1C(=O)c2cccc3cc(N)cc(c23)C1=O [amonafide] for me?
92.7

###

Reported cell viability values for the following compounds.
Tested on: Caco-2
Test: cell viability relative to DMSO; higher = less toxic
Settings: 72 h; 100 nM
Your answer is read as %, so omit the unit and give the number.

Worked examples follow.
compound	unit spec	cell viability
O=C(c1cc2ccccc2o1)N1CCN(Cc2ccccc2)CC1	%	88.8
COC(=O)C1=C(C)NC(C)=C(C(=O)OC(C)C)[C@@H]1c1cccc2nonc12	%	99.3
C[C@]12CC[C@H]3[C@@H](CCC4=CC(=O)CC[C@@]43C)[C@@H]1CC[C@@H]2O	%	70.8
COc1ccc(CNCc2cccc3ccccc23)cc1	%	98.5
Cc1c(C)c(NCC(=O)N(C)C2CCN(Cc3ccc(C(N)=O)cc3)CC2)c(C)c(C)c1N	%	92.7
CC=C1C(=O)C[C@H]2[C@@H]3CCC4=CC(=O)CC[C@]4(C)[C@H]3CC[C@]12C	%	99.5

Can you look up the measured cell viability of "CCS(=O)(=O)Nc1ccc2c(c1)/C(=C(/Nc1ccc(CN3CCCCC3)cc1)c1ccccc1)C(=O)N2" for me?
90.7

Can you look up the measured cell viability of CN(C)CCN1C(=O)c2cccc3cc(N)cc(c23)C1=O [amonafide] for me?
97.9

Can you look up the measured cell viability of "Cc1cccc(NC(=O)N[C@@H]2N=C(c3ccccc3)c3ccccc3N(C)C2=O)c1" for me?
100

###

System: Calu-3
Assay: cell viability relative to DMSO; higher = less toxic
Details: 72 h; 10 nM
Reported cell viability values for the following compounds.
Your answer is read as %, so omit the unit and give the number.

Could you share what cell viability was measured for "CO[C@H]1CC[C@H](N(c2cc(C3=CCCCC3)sc2C(=O)O)C(=O)[C@H]2CC[C@H](C)CC2)CC1" , tested on Calu-3?
110

Could you share what cell viability was measured for "CCCCCCNC(=O)Nc1ccc(S(=O)(=O)Nc2ccc(CCNC[C@H](O)COc3ccc(O)cc3)cc2)cc1" , tested on Calu-3?
96.8

Could you share what cell viability was measured for "CC(=O)Nc1cccc(O)c1" , tested on Calu-3?
101

Could you share what cell viability was measured for C[C@@H](CN(C)C)CN1c2ccccc2Sc2ccccc21 (racemic) , tested on Calu-3?
94.8

Could you share what cell viability was measured for "Cc1c(C)c(NCC(=O)N(C)C2CCN(Cc3ccc(C(N)=O)cc3)CC2)c(C)c(C)c1N" , tested on Calu-3?
91

###

Tested on: Calu-3
Assay: cell viability relative to DMSO; higher = less toxic
Settings: 72 h; 1 nM
quantity kind: cell viability (%)
Your answer is read as %, so omit the unit and give the number.

compound	unit spec	observed measurement
COc1ccc(COc2ccc(CC#N)cc2)cc1	%	104

Could you share what cell viability was measured for "COc1cc2c(cc1F)C(c1ccccc1Cl)=Nc1c(n[nH]c1C)N2" , tested on Calu-3?
111

Could you share what cell viability was measured for "CC(C)(O)c1coc(S(=O)(=O)NC(=O)Nc2c3c(cc4c2CCC4)CCC3)c1" , tested on Calu-3?
120

Could you share what cell viability was measured for C[C@]12N[C@H](Cc3ccccc31)c1ccccc12 [dizocilpine-(-)] , tested on Calu-3?
97.8

Could you share what cell viability was measured for "CCCC(=O)Nc1cccc(NC(=O)c2ccccc2Br)c1" , tested on Calu-3?
95.4

Could you share what cell viability was measured for C#C[C@]1(OC(C)=O)CC[C@H]2[C@@H]3CCC4=C[C@@H](OC(C)=O)CC[C@@H]4[C@H]3CC[C@@]21C [ethynodiol-diacetate] , tested on Calu-3?
99.4

###

Tested on: U2OS
Test: cell viability relative to DMSO; higher = less toxic
Details: 72 h; 10000 nM
Reported cell viability values for the following molecules.
Your answer is read as %, so omit the unit and give the number.

Worked examples follow.
molecule	cell viability [%]
CC(C)Nc1cccnc1N1CCN(C(=O)c2cc3cc(NS(C)(=O)=O)ccc3[nH]2)CC1	102
Cc1cc2c(s1)Nc1ccccc1N=C2N1CCN(C)CC1	102
Cc1oc(-c2ccccc2)nc1CCC(=O)c1ccc(CC2SC(=O)NC2=O)cc1 (stereo not given)	103
O=C(C[S+]([O-])C(c1ccccc1)c1ccccc1)NO (stereo not given)	99.8

Now let's try a different one.
Can you look up the measured cell viability of Cc1cc(C(C#N)c2ccc(Cl)cc2)c(Cl)cc1NC(=O)c1cc(I)cc(I)c1O (stereo not given) for me?
104

###

Test system: Caco-2
Experiment: cell viability relative to DMSO; higher = less toxic
Settings: 72 h; 10 nM
quantity kind: cell viability (%)
Your answer is read as %, so omit the unit and give the number.

compound	observed measurement
CCOC(=O)[C@@H](N)Cc1ccc(-c2cc(O[C@H](c3ccc(Cl)cc3-n3ccc(C)n3)C(F)(F)F)nc(N)n2)cc1 [telotristat-ethyl]	89.6
C=C1C(=O)O[C@@H]2[C@H]3C(C)=CC[C@@]34O[C@@]4(C)CC[C@@H]12 [arglabin]	97.8

Can you look up the measured cell viability of CCN(CC)CCOCCOC(=O)C1(c2ccccc2)CCCC1 [carbetapentane] for me?
94.3

Can you look up the measured cell viability of Oc1ccc2ccccc2c1SSc1c(O)ccc2ccccc12 [IPA-3] for me?
94.9

###

Test system: Caco-2
Experiment: cell viability relative to DMSO; higher = less toxic
Details: 72 h; 100 nM
Reported cell viability values for the following compounds.
Your answer is read as %, so omit the unit and give the number.

Worked examples follow.
compound	unit spec	cell viability
CC(C)(C)n1nc(-c2cccc3ccccc23)c2c(N)ncnc21 [1-naphthyl-PP1]	%	98.6
Oc1ccc2ccccc2c1SSc1c(O)ccc2ccccc12 [IPA-3]	%	91
N#C/C(=C\c1ccc(O)c(O)c1)C(=O)NCCCCc1ccccc1 [AG-556]	%	101
Cc1c(C(=O)NN2CCCCC2)nn(-c2ccc(Cl)cc2Cl)c1-c1ccc(Cl)cc1 [rimonabant]	%	97.7
C[N+]12CCCCC1CCC(=C(c1cccs1)c1cccs1)C2 (centres undefined) [tiquizium]	%	89.7
CC(=O)OCC(=O)NCCCOc1cccc(CN2CCCCC2)c1 [roxatidine-acetate]	%	97.1
O=[N+]([O-])C(Br)(CO)CO [bronopol]	%	96.5
Cc1cc2c(s1)Nc1ccccc1N=C2N1CCN(C)CC1 [olanzapine]	%	98.1
CON(C)C(=O)N1N=C(c2cc(F)ccc2F)S[C@@]1(CCCN)c1ccccc1 [filanesib]	%	68.7
CCC(=O)NC[C@@H]1C[C@H]1c1cccc2c1CCO2 [tasimelteon]	%	90.6

Can you look up the measured cell viability of CC[C@H]1[C@@H]2C[C@H]3[C@@H]4N(C)c5ccccc5[C@]45C[C@@H]([C@@H]2[C@H]5O)N3[C@@H]1O [ajmaline] for me?
94.9

Can you look up the measured cell viability of NC(=O)CN1CCCC1=O [piracetam] for me?
98.7

Can you look up the measured cell viability of C#C[C@]1(O)CC[C@H]2[C@@H]3CCC4=CC(=O)CC[C@@H]4[C@H]3CC[C@@]21C [Norethindrone (Norethisterone)] for me?
97

Can you look up the measured cell viability of Cc1cc(C(C)(C)CC(C)(C)C)ccc1OCCOCC[N+](C)(C)Cc1ccccc1 [methylbenzethonium-chloride] for me?
99.3
